- subject of test: Class B1 NDM-1 (Klebsiella pneumoniae, UniProt C7C422)
- Construct: gene blaNDM-1
- Sequence (C7C422 whole entry, looked up): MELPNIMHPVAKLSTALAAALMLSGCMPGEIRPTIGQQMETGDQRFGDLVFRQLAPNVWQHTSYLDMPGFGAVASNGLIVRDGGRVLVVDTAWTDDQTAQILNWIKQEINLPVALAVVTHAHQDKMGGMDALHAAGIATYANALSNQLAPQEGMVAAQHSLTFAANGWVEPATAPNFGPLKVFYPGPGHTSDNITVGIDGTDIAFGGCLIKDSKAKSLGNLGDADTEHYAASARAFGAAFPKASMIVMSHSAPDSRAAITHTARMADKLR
- protocol: biochemical
- Parameters: inhibition of purified recombinant beta-lactamases, IC50 from dose-response curves; read-out not stated in excerpts

{"columns": ["compound", "subject of test", "IC50"],
 "data": [
  ["NC(=O)[C@@H]1CC[C@@H]2CN1C(=O)N2OS(=O)(=O)O", "Class B1 NDM-1 (Klebsiella pneumoniae, UniProt C7C422)", "> 600 µM"],
  ["C=C(C(=O)O)[C@H]1OB(O)c2ccccc21 [(S)-4a]", "Class B1 NDM-1 (Klebsiella pneumoniae, UniProt C7C422)", "> 600 µM"]
]}
